Source listed as patent US5451582A.

- MEASUREMENT TARGET: CCK receptor (pancreas) (Rattus norvegicus)
- Construct: The whole pancreas was dissected free of fat tissue and was homogenized; from tissue; host or cells: rat pancreas membranes (male Sprague-Dawley)
- Sequence (P30551 whole entry): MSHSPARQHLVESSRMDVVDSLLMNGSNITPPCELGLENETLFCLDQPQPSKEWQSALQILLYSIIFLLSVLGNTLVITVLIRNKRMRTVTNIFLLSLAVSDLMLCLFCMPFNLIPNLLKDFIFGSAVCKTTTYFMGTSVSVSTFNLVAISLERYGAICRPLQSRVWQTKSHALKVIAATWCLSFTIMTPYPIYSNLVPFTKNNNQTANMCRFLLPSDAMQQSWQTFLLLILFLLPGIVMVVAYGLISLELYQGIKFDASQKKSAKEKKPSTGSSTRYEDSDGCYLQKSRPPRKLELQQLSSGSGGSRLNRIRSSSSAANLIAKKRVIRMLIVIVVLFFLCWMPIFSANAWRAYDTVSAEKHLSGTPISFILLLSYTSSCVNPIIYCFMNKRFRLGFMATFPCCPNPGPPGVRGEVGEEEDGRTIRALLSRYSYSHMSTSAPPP
- METHOD NOTES: CCK Receptor Binding (Pancreas), inhibition of 125I-CCK-8 binding
- Design: species or system rat (male Sprague-Dawley)
- CONDITION PARAMETERS: rat pancreas membranes; 50 pM 125I-CCK-8; pH 6.5; 25° C., 2 hours
MEASUREMENT NAME: IC50 (nM)

# COMPOUND, MEASUREMENT NAME, SIGN QUALIFIER, TEST RESULT
rows = [
    ("CC1=NC(NC(=O)Nc2cccc(-c3nn[nH]n3)c2)C(=O)N(C)c2ccccc21 (racemic)", "IC50", ">", 3000),
    ("CC(C)CN1C(=O)C(NC(=O)Nc2cccc(C(=O)NS(C)(=O)=O)c2)N=C(C(C)(C)C)c2ccccc21 (racemic)", "IC50", "=", 612),
    ("CC(C)CN1C(=O)C(NC(=O)Nc2cccc(-c3nn[nH]n3)c2)N=C(C(C)C)c2ccccc21 (racemic)", "IC50", "=", 600),
]
